EC50 listing for selected compounds.
target: Sphingosine 1-phosphate receptor 3 (Homo sapiens, UniProt Q99500); assay: Agonist activity at human S1P3R expressed in RBL membranes assessed as [35S]GTPgammaS binding after 30 mins
Sequence (Q99500 whole entry): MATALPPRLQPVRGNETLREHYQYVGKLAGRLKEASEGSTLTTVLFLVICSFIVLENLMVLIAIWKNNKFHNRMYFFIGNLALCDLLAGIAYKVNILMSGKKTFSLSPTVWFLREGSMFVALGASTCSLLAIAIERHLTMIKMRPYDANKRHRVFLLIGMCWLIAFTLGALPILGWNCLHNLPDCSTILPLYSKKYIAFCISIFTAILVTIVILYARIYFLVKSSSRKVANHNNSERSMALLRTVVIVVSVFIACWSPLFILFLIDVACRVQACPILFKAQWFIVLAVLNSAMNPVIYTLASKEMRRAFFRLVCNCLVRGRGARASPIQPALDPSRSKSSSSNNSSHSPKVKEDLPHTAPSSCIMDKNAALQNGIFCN
Quick note: give the figure in µM, leave out the unit.

Check out these entries, answers already filled in.
Enquiry: Any idea what EC50 was measured for CC(C)Oc1ccc(-c2nc(-c3cccc4c3OCCNC4CCCC(=O)O)no2)cc1Cl (stereo not given) ?
Return: 25.1

Enquiry: Try this compound next: CC(C)Oc1ccc(-c2nc(-c3ccc4c(c3)CN(CCC(=O)O)CCO4)no2)cc1Cl
Return: 2

Enquiry: Can you check CC(C)Oc1ccc(-c2nc(-c3ccc4c(c3)CNC(CCC(=O)O)CO4)no2)cc1Cl (stereo not given) next?
Return: 0.251

Enquiry: Input CC(C)Oc1ccc(-c2nc(-c3cccc4c3CCNC4)no2)cc1Cl
Return: 15.8

Enquiry: Item: CC(C)Oc1ncc(-c2nc(-c3cccc4c3OCCNC4CCCC(=O)O)no2)cc1Cl (stereo in doubt; 31b)
Return: 10

Next:
Enquiry: Data request, read-out EC50, for CC(C)Oc1ccc(-c2nc(-c3cccc4c3CCNC4CC(=O)O)no2)cc1Cl (stereo not given)
Return: 5.01

Enquiry: Try this compound too: CC(C)Oc1ccc(-c2nc(-c3ccc4c(c3)CCNC4)no2)cc1C#N
Return: 31.6

Enquiry: What about CC(C)Oc1ccc(-c2nc(-c3ccc4c(c3)CCN(CCCC(=O)O)CC4)no2)cc1C#N ?
Return: 7.94

Enquiry: Another compound: O=C(O)c1cnn(Cc2ccc(-c3noc(-c4cc(-c5ccccc5)c(C(F)(F)F)s4)n3)cc2)c1
Return: 1.58

Enquiry: What do you get for CC(C)Oc1ccc(-c2nc(-c3ccc4c(c3)CNC(C(=O)O)CO4)no2)cc1Cl (stereo not given) ?
Return: 0.794
